Give IC50 for every item shown.
- Test system: NB4 human promyelocitic leukaemia
- assay remarks: Cytotoxicity (sulphorodamine B) on NB4 tumor cells
- Assay type: cell-based
- details: 24 h treatment, then 48 h in drug-free medium, read-out: IC50 ± SD, NB4
// note: answer is a bare numeric in µM

IC50 on NB4 human promyelocitic leukaemia for COc1ccc(CO[C@@H](CCCCCC(=O)NO)C(=O)Nc2ccccc2)cc1 [(S)-9d] is 0.1

IC50 on NB4 human promyelocitic leukaemia for COc1cccc(COC(CCCCCC(=O)NO)C(=O)N(Cc2cccc(OC)c2)c2ccccc2)c1 (racemic) [Compound 9i] is 4

###

- Tested on: NB4 human promyelocitic leukaemia
- assay remarks: Cytotoxicity (sulphorodamine B) on NB4 tumor cells
- Assay type: cell-based
- details: Homo sapiens, NB-4, 24 h treatment, then 48 h in drug-free medium, read-out: IC50 ± SD, NB4
Each entry falls into one class according to its IC50; the ranges are LOW = under 0.2 µM, MID = from 0.2 µM up to 0.8 µM, HIGH = 0.8 µM and over

In: Lab log: C=CCOC(CCCCC(=O)NO)C(=O)Nc1ccccc1 (racemic) [Compound 5c] — assign IC50 category
Out: HIGH

In: Lab log: COc1ccc(COC(CCCCCC(=O)NO)C(=O)Nc2ccc(OC)cc2)cc1 (racemic) [Compound 9m] — assign IC50 category
Out: LOW

In: Lab log: O=C(CCCCC(OCc1ccccc1)C(=O)Nc1ccccc1)NO (racemic) [Compound 5f] — assign IC50 category
Out: HIGH

In: Lab log: O=C(CCCCC(O)C(=O)Nc1ccccc1)NO (racemic) [Compound 5a] — assign IC50 category
Out: HIGH

In: Lab log: CO[C@H](CCCCC(=O)NO)C(=O)Nc1ccccc1 [(R)-5b] — assign IC50 category
Out: HIGH

In: Lab log: C=CCOC(CCCCCC(=O)NO)C(=O)Nc1ccccc1 (racemic) [Compound 9c] — assign IC50 category
Out: MID

In: Lab log: COc1ccc(COC(CCCCC(=O)NO)C(=O)Nc2ccccc2)cc1 (racemic) [Compound 5g] — assign IC50 category
Out: HIGH

In: Lab log: COc1ccc(COC(CCCCCCC(=O)NO)C(=O)Nc2ccccc2)cc1 (racemic) [Compound 13d] — assign IC50 category
Out: MID

In: Lab log: COC(CCCCCC(=O)NO)C(=O)Nc1ccccc1 (racemic) [Compound 9b] — assign IC50 category
Out: MID

In: Lab log: Cc1ccc(COC(CCCCCC(=O)NO)C(=O)Nc2ccccc2)cc1 (racemic) [Compound 9g] — assign IC50 category
Out: LOW

In: Lab log: O=C(CCCCCC(O)C(=O)Nc1ccccc1)NO (racemic) [Compound 9a] — assign IC50 category
Out: MID

In: Lab log: CO[C@@H](CCCCC(=O)NO)C(=O)Nc1ccccc1 [(S)-5b] — assign IC50 category
Out: HIGH

###

Give IC50 for every item shown.
- System: NB4 human promyelocitic leukaemia
- assay remarks: Cytotoxicity (sulphorodamine B) on NB4 tumor cells
- Format: cell-based
- details: Homo sapiens, NB-4, 24 h treatment, then 48 h in drug-free medium, read-out: IC50 ± SD, NB4
In your response, put the unit directly after the numeric value.

Record COc1ccc(NC(=O)C(CCCCCC(=O)NO)OCc2ccccc2)cc1 (racemic) . Reported IC50: 200 nM

Record O=C(CCCCCC(OCc1ccc(C(F)(F)F)cc1)C(=O)Nc1ccccc1)NO (racemic) . Reported IC50: 200 nM

Record O=C(CCCCCC(OCc1cccc(Oc2ccccc2)c1)C(=O)Nc1ccccc1)NO (racemic) . Reported IC50: 200 nM

Record COC(CCCCCCC(=O)NO)C(=O)Nc1ccccc1 (racemic) [Compound 13b] . Reported IC50: 800 nM

Record COc1cccc(COC(CCCCCC(=O)NO)C(=O)Nc2ccccc2)c1 (racemic) . Reported IC50: 200 nM
